This collection of values is drawn from patent US20190233498A1.

Could you please report measured Kd for the items listed next?
Biological target: T1, human PACAP27 (human, C-terminal leucine is amidated; 125I-labelled in Example 10)
T1 peptide: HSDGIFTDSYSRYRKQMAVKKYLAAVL
Assay: SPR, Ab immobilised
Return type: number; implicit unit nM.

Field Kd (entry anti-PACAP antibody Ab7 (antibody, human IgG1, kappa, N297A, V domains shown, full-length rabbit/human chimeric antibody) VH: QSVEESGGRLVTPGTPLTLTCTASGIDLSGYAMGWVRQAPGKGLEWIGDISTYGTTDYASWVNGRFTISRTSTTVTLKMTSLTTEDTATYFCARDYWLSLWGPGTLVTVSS VL: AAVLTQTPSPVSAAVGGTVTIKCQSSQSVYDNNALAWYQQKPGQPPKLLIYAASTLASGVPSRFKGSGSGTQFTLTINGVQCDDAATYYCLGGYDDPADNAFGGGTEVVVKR ) reads 0.2

According to the records, this binder anti-PACAP antibody Ab4 (antibody, human IgG1, kappa, N297A, V domains shown, full-length rabbit/human chimeric antibody) VH: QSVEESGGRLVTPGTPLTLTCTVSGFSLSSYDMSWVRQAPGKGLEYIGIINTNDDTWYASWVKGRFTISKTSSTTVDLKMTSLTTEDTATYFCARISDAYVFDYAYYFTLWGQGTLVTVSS VL: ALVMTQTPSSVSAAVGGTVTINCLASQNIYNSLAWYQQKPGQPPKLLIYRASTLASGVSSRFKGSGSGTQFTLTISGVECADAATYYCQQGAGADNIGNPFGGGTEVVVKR displays Kd of 0.51
